tested on: Human immunodeficiency virus; experiment: Antiviral activity against Human immunodeficiency virus expressing wild type RT infected in human MT4 cells by p24 antigen assay in the presence of 10% FBS; format: functional; details: Human immunodeficiency virus 1, MT4; read-out: CIC95
Label rule not met if IC95 falls below 4 nM; label rule met in every other case.

Consider the following illustrative entries.
smiles code | answer label
N#Cc1cc(Cl)cc(Oc2cc(OCc3n[nH]c4nc(N)ccc34)ccc2Cl)c1 | rule met
N#Cc1cc(Cl)cc(Oc2c(Cl)ccn(Cc3n[nH]c4ncccc34)c2=O)c1 | rule not met
N#Cc1cc(Cl)cc(Oc2cc(Cc3n[nH]c4ncccc34)ccc2Cl)c1 | rule met
Cc1ccn(CCc2n[nH]c3ncccc23)c(=O)c1Oc1cc(Cl)cc(C#N)c1 | rule met
Cc1ccn(Cc2n[nH]c3ncccc23)c(=O)c1Oc1cc(Cl)cc(C#N)c1 | rule not met

Q) Kindly determine if IC95 recorded for N#Cc1cc(Cl)cc(Oc2c(Cl)ccn(Cc3n[nH]c4nc(N)ccc34)c2=O)c1 is above or exactly 4 nM.
A) rule not met

Q) Kindly determine if IC95 recorded for N#Cc1cc(Cl)cc(Oc2c(Cl)c(Cl)cn(Cc3n[nH]c4ncccc34)c2=O)c1 is above or exactly 4 nM.
A) rule met

====

biological target: Human immunodeficiency virus type 1 reverse transcriptase (Human immunodeficiency virus 1, UniProt Q72547, Y181C); experiment: Inhibition of Human immunodeficiency virus reverse transcriptase Y181C mutant by SPA assay
Criterion: Ki strictly less than 1 nM. Met: true. Not met: false.

Consider the following illustrative entries.
smiles code | answer label
N#Cc1cc(Cl)cc(Oc2cc(Cc3n[nH]c4ncccc34)ccc2Cl)c1 | true
Cc1ccn(CCc2n[nH]c3ncccc23)c(=O)c1Oc1cc(Cl)cc(C#N)c1 | false
N#Cc1cc(Cl)cc(Oc2c(Cl)ccn(Cc3n[nH]c4nc(N)ccc34)c2=O)c1 | false
N#Cc1cc(Cl)cc(Oc2c(Cl)c(Cl)cn(Cc3n[nH]c4ncccc34)c2=O)c1 | false

Now let's try a different one.
Q) hey, is Ki for Cc1ccn(Cc2n[nH]c3ncccc23)c(=O)c1Oc1cc(Cl)cc(C#N)c1 lower than 1 nM or not?
A) false

====

# maps each entry to its fraction unbound
assay: Plasma protein binding in human; assay type: ADME, cell-free; conditions: read-out: PPB (converted)
# respond with the number and nothing more

compound | meas value
CCc1nn(CCO)c(CC)c1Oc1cc(C#N)cc(C#N)c1 [LERSIVIRINE] | 0.49
N#Cc1cc(Cl)cc(Oc2cc(OCc3n[nH]c4nc(N)ccc34)ccc2Cl)c1 | 0.035

According to the records, this compound Cc1cc(/C=C/C#N)cc(C)c1Nc1ccnc(Nc2ccc(C#N)cc2)n1 [RILPIVIRINE] displays fraction unbound of 0.003

According to the records, this compound N#Cc1cc(Cl)cc(Oc2c(Cl)ccn(Cc3n[nH]c4ncccc34)c2=O)c1 displays fraction unbound of 0.033

====

biological target: Human immunodeficiency virus type 1 reverse transcriptase (Human immunodeficiency virus 1, UniProt Q72547, K103N); experiment: Inhibition of Human immunodeficiency virus reverse transcriptase K103N mutant by SPA assay
measured attribute: pKi
Friendly reminder that pKi comes from taking -log10 of the concentration in mol/L.

smiles code | meas value
N#Cc1cc(Cl)cc(Oc2cc(Cc3n[nH]c4ncccc34)ccc2Cl)c1 | 9.32
Cc1ccn(Cc2n[nH]c3ncccc23)c(=O)c1Oc1cc(Cl)cc(C#N)c1 | 8.43
N#Cc1cc(Cl)cc(Oc2c(Cl)c(Cl)cn(Cc3n[nH]c4ncccc34)c2=O)c1 | 8.80
N#Cc1cc(Cl)cc(Oc2c(Cl)ccn(Cc3n[nH]c4nc(N)ccc34)c2=O)c1 | 8.68
N#Cc1cc(Cl)cc(Oc2c(Cl)ccn(Cc3n[nH]c4ncccc34)c2=O)c1 | 8.82

Could you now consider this next molecule?
According to the records, this molecule Cc1ccn(CCc2n[nH]c3ncccc23)c(=O)c1Oc1cc(Cl)cc(C#N)c1 displays pKi of 7.24

Source of measurements: ChEMBL document CHEMBL1926610
